B1: Azoarcus group I ribozyme (parent)
chain: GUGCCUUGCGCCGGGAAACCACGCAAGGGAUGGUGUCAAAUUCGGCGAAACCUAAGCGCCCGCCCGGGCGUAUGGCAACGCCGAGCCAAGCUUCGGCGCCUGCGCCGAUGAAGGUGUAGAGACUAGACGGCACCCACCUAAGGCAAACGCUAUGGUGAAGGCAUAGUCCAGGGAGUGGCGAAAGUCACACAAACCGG

- Variants of: B1
- protocolSummary: reverse-splicing fitness (ratio to wild type); higher = more active; in vitro selection; Mg2+ level not given
Consider the reported reverse-splicing fitness of an entry and match it to a band in Low = under 0.008, Medium = from 0.008 up to 0.02, High = 0.02 and over

Problem: Class label required: C82A A111U A120C C150G C169G U176G
Solution: Low

Problem: Class label required: A111G A145U C150G C169G U176G
Solution: Low

Problem: Class label required: C82U A120C C150A C169U U176C
Solution: Medium

Problem: Class label required: C82A A111U A145G C150A C169A U176G
Solution: Medium

Problem: Class label required: C82U A145G C150G C169A U176G
Solution: Low

Problem: Class label required: A111G A120C A145U C150G C169G U176G
Solution: Low

Problem: Class label required: A111U A120C A145U C150A U176A
Solution: High

Problem: Class label required: C82A A111U A145G C150U C169A
Solution: Medium

Problem: Class label required: A111U A145G C150U C169U
Solution: High

Problem: Class label required: C82G A111G A120U A145C C150A C169U U176C
Solution: Low

Problem: Class label required: A111C A120C A145G C150U C169G U176C
Solution: Medium

Problem: Class label required: C82A A111C A120U A145C C150U U176C
Solution: Low

Problem: Class label required: C82A A120U A145U C150U U176C
Solution: High

Problem: Class label required: C82U A120C U176G
Solution: Medium

Problem: Class label required: C82U A111U A145C C150G C169A U176C
Solution: Low

Problem: Class label required: C82A A111G A120G A145U C150G C169G U176A
Solution: Low

Problem: Class label required: C82A A111G A120C A145C C150U C169G U176A
Solution: High

Problem: Class label required: A111G A145U C150G C169U U176C
Solution: Medium

Problem: Class label required: A111C A145C C150U C169A U176G
Solution: Low

Problem: Class label required: C82G A111U A145G C150A C169A U176A
Solution: Medium

Problem: Class label required: A111G A120G A145C C150G U176A
Solution: Medium

Problem: Class label required: C82A A111G A120C C150G C169G U176A
Solution: Low

Problem: Class label required: C82G A111C A120U A145U C150A C169U U176A
Solution: Low

Problem: Class label required: C82U A111C A120U C150A C169A
Solution: Low

Problem: Class label required: C82U A111G A145C C150G C169U U176C
Solution: Medium

Problem: Class label required: C82G A120U C150G C169A
Solution: Low

Problem: Class label required: C82U A111C A120C A145G U176C
Solution: High

Problem: Class label required: A120C A145U C150A C169A U176A
Solution: Medium

Problem: Class label required: A111G A120G A145U C150U C169U
Solution: High

Problem: Class label required: A120U A145G C150G
Solution: High

Problem: Class label required: C82G A111G A120G A145U C150U C169U
Solution: Medium

Problem: Class label required: A111U A120U A145C C150A C169A U176C
Solution: Low

Problem: Class label required: A145G C150U C169A
Solution: High

Problem: Class label required: C82U A120C A145G C150G C169A U176A
Solution: Medium

Problem: Class label required: C82U A111U C150A C169A
Solution: Medium

Problem: Class label required: A111U A120G A145U C150U U176A
Solution: High

Problem: Class label required: C82G A111C A120G A145G C150A C169G U176A
Solution: Medium

Problem: Class label required: C82A A111U A145U C150G
Solution: High

Problem: Class label required: C82U A120G A145C C150A C169G U176G
Solution: Low

Problem: Class label required: C82G A111C A120C C169U U176C
Solution: Medium

Problem: Class label required: C82G A120U C150U U176A
Solution: High

Problem: Class label required: C82U A111U A120C A145U
Solution: High

Problem: Class label required: C82A A145U C150U C169G U176C
Solution: Medium

Problem: Class label required: C82U A120G C169A
Solution: Medium

Problem: Class label required: A120G C150A C169U U176G
Solution: Medium

Problem: Class label required: C82U A111U A120U C150A C169G U176A
Solution: Low

Problem: Class label required: C82U A111G A120G A145G C150A C169G U176C
Solution: High

Problem: Class label required: C82G A111C A120C C150A C169A U176C
Solution: Medium

Problem: Class label required: C82A A111U A120U A145C C150A C169U U176G
Solution: Low

Problem: Class label required: A120G A145C C150G U176A
Solution: High

Problem: Class label required: A111G A120G
Solution: High

Problem: Class label required: C82A A111U A120G A145C C169U U176A
Solution: High

Problem: Class label required: C82U A111C A120U C169A U176G
Solution: Low

Problem: Class label required: C82U A111U A145G C150G C169G
Solution: Low

Problem: Class label required: C82G A145U C150G C169U U176C
Solution: Medium

Problem: Class label required: C82U A111G A145G C150G C169G U176A
Solution: Medium

Problem: Class label required: A111U A120G C150U U176A
Solution: High

Problem: Class label required: C82A A120C A145U C150G C169U U176G
Solution: Low

Problem: Class label required: C82G A111U A145G C150A C169G U176C
Solution: High

Problem: Class label required: A111G A120C A145U C150G
Solution: High

Problem: Class label required: C82A A111G A120G A145G C150G C169U U176A
Solution: Medium

Problem: Class label required: C82A A111C A120C A145G U176G
Solution: Low

Problem: Class label required: C82G A111U A120G A145G U176C
Solution: Medium

Problem: Class label required: C82U A120U C169U U176A
Solution: Low

Problem: Class label required: C82U A111G A145C C150G C169A
Solution: Low

Problem: Class label required: C82G A111U A120G A145C C150G C169A U176G
Solution: Low

Problem: Class label required: C82U A111G A120U A145G C150G C169U U176A
Solution: Low

Problem: Class label required: A111U A145G C150G C169U U176G
Solution: Low

Problem: Class label required: A120G A145G C169U U176G
Solution: Medium

Problem: Class label required: A111U A145C C150U C169A U176A
Solution: Medium

Problem: Class label required: A111C A120U A145U C150G C169A
Solution: Low

Problem: Class label required: C82G A111U A120G A145U
Solution: Medium

Problem: Class label required: A111U A120U A145G C150U C169G U176G
Solution: Low

Problem: Class label required: C82G A111U A120G A145C C150A U176A
Solution: Medium

Problem: Class label required: C82A A111C A145C
Solution: High

Problem: Class label required: C82G A111C A120G C169U U176G
Solution: Low

Problem: Class label required: C82G A111U A120G A145U C150U C169U U176G
Solution: Low

Problem: Class label required: C82U A111G A120U A145U C150U C169A U176A
Solution: Low

Problem: Class label required: A111G A145C C150U C169A U176A
Solution: Medium

Problem: Class label required: C82G A111C A120U A145C C150U C169G U176G
Solution: Low

Problem: Class label required: C82G A120G C169A U176C
Solution: High

Problem: Class label required: A111C A120G A145U C150U U176G
Solution: Low

Problem: Class label required: C82U A111U A120U A145G C169U U176A
Solution: Low

Problem: Class label required: C82U A111U A145U C150U C169A U176A
Solution: Medium

Problem: Class label required: A111G A120U A145C C150U U176C
Solution: High
